- SUBJECT_OF_TEST: CIB1 and αIIb interaction (CIB1-GST : F-αIIb peptide) (Homo sapiens)
- Construct: made in house; host or cells: BL-21 plus RIL cells (E. coli)
- Sequence (Q99828 whole entry): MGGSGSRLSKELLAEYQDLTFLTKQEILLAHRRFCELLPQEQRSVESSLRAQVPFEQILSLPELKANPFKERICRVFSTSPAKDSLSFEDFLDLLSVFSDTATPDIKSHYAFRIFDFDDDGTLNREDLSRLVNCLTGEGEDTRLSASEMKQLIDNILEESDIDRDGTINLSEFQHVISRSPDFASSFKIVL
- PROTOCOL_DETAILS: FP assay, 1536-well qHTS format (primary and confirmatory screen)
- Type: binding
- CONDITION_LABEL: IC50 [μM]
# IC50 per entry
Be sure to follow the number with its unit.

{"COMPOUND": "NC(Cc1cc(O)c(O)cc1O)C(=O)O (stereo not shown) [NCGC00015503-06]", "SUBJECT_OF_TEST": "CIB1 and αIIb interaction (CIB1-GST : F-αIIb peptide) (Homo sapiens)", "IC50": "35.5 µM"}

Ask: // Input: CN(C)C(=S)SSC(=S)N(C)C [NCGC00091563-12] . Output its IC50 only.
Result: 39.8 µM

Ask: Give reported IC50 value for S=P(N1CC1)(N1CC1)N1CC1 [NCGC00095042-06]
Result: 126 µM

Ask: Consider the compound Oc1cccc2cccnc12 [NCGC00090708-05] . State its measured IC50.
Result: 117 µM
